experimental-system: human CYP2C9 (Homo sapiens)
Sequence (P11712 whole entry): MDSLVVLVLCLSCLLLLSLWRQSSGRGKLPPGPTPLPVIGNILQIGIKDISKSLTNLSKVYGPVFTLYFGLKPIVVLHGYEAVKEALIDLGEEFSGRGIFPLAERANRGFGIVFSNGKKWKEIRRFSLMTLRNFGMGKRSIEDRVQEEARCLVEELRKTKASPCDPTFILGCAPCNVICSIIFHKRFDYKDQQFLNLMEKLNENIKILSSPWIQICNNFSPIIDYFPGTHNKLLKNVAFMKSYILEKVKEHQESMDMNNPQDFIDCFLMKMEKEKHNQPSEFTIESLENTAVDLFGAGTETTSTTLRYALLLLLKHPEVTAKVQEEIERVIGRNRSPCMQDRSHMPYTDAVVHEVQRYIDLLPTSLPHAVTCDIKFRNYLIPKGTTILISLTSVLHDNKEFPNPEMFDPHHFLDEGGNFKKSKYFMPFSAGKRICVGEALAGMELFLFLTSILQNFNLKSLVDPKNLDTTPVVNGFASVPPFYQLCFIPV
assay-method-text: biochemical
Structures can show the parent of a compound that is named as a salt.
Classify: 1 (yes) when IC50 is strictly less than 1 µM; 0 (no) when IC50 is not.

compound | experimental-system | assigned-class
CCOP(=S)(OCC)O/N=C(\C#N)c1ccccc1 | human CYP2C9 (Homo sapiens) | 0 (no)
COP(=S)(OC)Oc1ccc(S(=O)(=O)N(C)C)cc1 | human CYP2C9 (Homo sapiens) | 1 (yes)
CC(C(O)c1ccccc1)N(C)CCOC(c1ccccc1)c1ccccc1 (centres unmarked) | human CYP2C9 (Homo sapiens) | 0 (no)
C[C@H]1CCCC(=O)CCC/C=C/c2cc(O)cc(O)c2C(=O)O1 | human CYP2C9 (Homo sapiens) | 0 (no)
O=c1cc(-c2ccccc2)oc2ccccc12 | human CYP2C9 (Homo sapiens) | 0 (no)
CCC(=O)O[C@H]1[C@H](O[C@@H]2[C@@H](C)[C@H](O[C@H]3C[C@@](C)(OC)[C@@H](O)[C@H](C)O3)[C@@H](C)C(=O)O[C@H](CC)[C@@](C)(O)[C@H](O)[C@@H](C)C(=O)[C@H](C)C[C@@]2(C)O)O[C@H](C)C[C@@H]1N(C)C [Erythromycin estolate] | human CYP2C9 (Homo sapiens) | 0 (no)
CN(Cc1cc(Br)cc(Br)c1N)C1CCCCC1 [Bromhexine hydrochloride] | human CYP2C9 (Homo sapiens) | 0 (no)
Nc1c(Cl)c(Cl)c(Cl)c(Cl)c1Cl | human CYP2C9 (Homo sapiens) | 0 (no)
COc1nn(CSP(=S)(OC)OC)c(=O)s1 | human CYP2C9 (Homo sapiens) | 0 (no)
O=C(NOCC1CC1)c1ccc(F)c(F)c1Nc1ccc(I)cc1Cl | human CYP2C9 (Homo sapiens) | 1 (yes)
O=C1C2(Cl)C3(Cl)C4(Cl)C(Cl)(Cl)C5(Cl)C3(Cl)C1(Cl)C5(Cl)C24Cl (centres unmarked) | human CYP2C9 (Homo sapiens) | 0 (no)
CCN(CC)c1nc(C)cc(OP(=S)(OC)OC)n1 | human CYP2C9 (Homo sapiens) | 0 (no)
Clc1ccc(C(Cn2ccnc2)OCc2ccc(Sc3ccccc3)cc2)c(Cl)c1 (centres unmarked) [Fenticonazole nitrate] | human CYP2C9 (Homo sapiens) | 0 (no)
O=C1N(c2ccccc2)c2ccccc2C1(Cc1ccncc1)Cc1ccncc1 | human CYP2C9 (Homo sapiens) | 0 (no)
O=C(OCC(O)CO)c1ccccc1Nc1ccnc2c(C(F)(F)F)cccc12 (centres unmarked) | human CYP2C9 (Homo sapiens) | 0 (no)
COC(=O)C1=C(C)NC(C)=C(C(=O)OCCN2CCN(C(c3ccccc3)c3ccccc3)CC2)C1c1cccc([N+](=O)[O-])c1 (centres unmarked) | human CYP2C9 (Homo sapiens) | 1 (yes)
O=C1c2ccccc2-c2ccccc21 | human CYP2C9 (Homo sapiens) | 0 (no)
COC(=O)C1=C(C)NC(C)=C(C(=O)OCCc2ccc(N3CCN(C(c4ccccc4)c4ccccc4)CC3)cc2)C1c1cccc([N+](=O)[O-])c1 (centres unmarked) | human CYP2C9 (Homo sapiens) | 1 (yes)
CN1CCN(CCCN2c3ccccc3Sc3ccc(S(=O)(=O)N(C)C)cc32)CC1 [Thioproperazine dimethanesulfonate] | human CYP2C9 (Homo sapiens) | 0 (no)
CCOP(=S)(OCC)Oc1cc(-c2ccccc2)on1 | human CYP2C9 (Homo sapiens) | 1 (yes)
CCOP(=S)(OCC)Oc1ccc2c(C)c(Cl)c(=O)oc2c1 | human CYP2C9 (Homo sapiens) | 1 (yes)
C=C(C)[C@H]1Cc2c(ccc3c2O[C@@H]2COc4cc(OC)c(OC)cc4[C@@H]2C3=O)O1 | human CYP2C9 (Homo sapiens) | 0 (no)
COC(=O)c1c(Cl)c(Cl)c(C(=O)OC)c(Cl)c1Cl | human CYP2C9 (Homo sapiens) | 0 (no)
CCN(Cc1c(F)cccc1Cl)c1c([N+](=O)[O-])cc(C(F)(F)F)cc1[N+](=O)[O-] | human CYP2C9 (Homo sapiens) | 0 (no)
CCOP(=S)(OCC)SC(CCl)N1C(=O)c2ccccc2C1=O (centres unmarked) | human CYP2C9 (Homo sapiens) | 0 (no)
COc1ccnc2c1CCCCC2[S+]([O-])c1nc2ccccc2[nH]1 (centres unmarked) | human CYP2C9 (Homo sapiens) | 0 (no)
CC1=C(C(=O)OC(C)C)C(c2cccc([N+](=O)[O-])c2)C(C(=O)OC2CN(C(c3ccccc3)c3ccccc3)C2)=C(N)N1 (centres unmarked) | human CYP2C9 (Homo sapiens) | 0 (no)
CCOP(=S)(OCC)SCSc1ccc(Cl)cc1 | human CYP2C9 (Homo sapiens) | 0 (no)
CCOP(=S)(OCC)SCSP(=S)(OCC)OCC | human CYP2C9 (Homo sapiens) | 1 (yes)
Clc1ccc(Nc2nnc(Cc3ccncc3)c3ccccc23)cc1 | human CYP2C9 (Homo sapiens) | 1 (yes)
CN(C)c1ccc(N=NS(=O)(=O)O)cc1 | human CYP2C9 (Homo sapiens) | 0 (no)
C=CC[C@]1(O)CC[C@H]2[C@@H]3CCC4=CC(=O)CCC4=C3C=C[C@@]21C | human CYP2C9 (Homo sapiens) | 0 (no)
CCOP(=S)(OCC)Oc1ccc([N+](=O)[O-])cc1 | human CYP2C9 (Homo sapiens) | 0 (no)
CCOP(=S)(OCC)SCn1c(=O)oc2cc(Cl)ccc21 | human CYP2C9 (Homo sapiens) | 0 (no)
